Assay: General toxicology NOAEL, rat
Set-up: dose or concentration left out as unconfirmed
Details: in vivo
readout_label: AUC (µg·h/mL)
Report the value in µg·h/mL with no unit label.

Value of measured AUC for the entry Cl.OC[C@H]1NC[C@H](O)[C@@H](O)[C@H]1O [Migalastat HCl, migalastat HCl] : 249

# credit: patent US11357834B2
